# System: SNB-75 CNS
# Protocol Notes: NCI tumour cell line growth inhibition, 48 h
Reported Property: TGI

Guide cases for TGI, answers given:
IN: Record request: TGI value, item CCCC(=O)Nc1cc(/C=C/C(=O)N2CC(CCl)c3ccc([N+](=O)[O-])cc32)n(C)c1 (stereo not given)
OUT: > 100 µM

IN: Record request: TGI value, item CCCCN(C)CC(C(C)=O)C(c1ccccc1)c1c(O)c2ccccc2oc1=O (stereo not given)
OUT: > 100 µM

IN: Record request: TGI value, item NC(=O)c1ccc(I)c([N+](=O)[O-])c1
OUT: > 100 µM

IN: Record request: TGI value, item NC1=C(O)/C(=N/NS(=O)(=O)c2ccccc2)C(c2ccc3c(c2)OCO3)O1 (stereo not given)
OUT: > 100 µM

IN: Record request: TGI value, item Cc1cn(CC2(CO)CCC2)c(=O)[nH]c1=O
OUT: > 100 µM

Others:
IN: Record request: TGI value, item C=CC(=C)CCC(Br)C(C)(C)Br (stereo not given)
OUT: > 100 µM

IN: Record request: TGI value, item CC(C)(C)n1[nH]c(=O)n(C(C)(C)C)c1=O
OUT: > 100 µM

IN: Record request: TGI value, item CCCCCCCCCCCCCC(=O)OCC(CCS(=O)(=O)O[C@H]1CC[C@@]2(C)C(=CC[C@@H]3C2CC[C@]2(C)C(=O)CCC32)C1)OC(=O)CCCCCCCCCCCCC (stereo not given in full)
OUT: > 100 µM

IN: Record request: TGI value, item CS(=O)(=O)c1ccc(C(=O)O[C@@H]2C(=O)N3CC[C@H]4OC(O)[C@@H]2[C@H]43)cc1 (stereo not given in full)
OUT: > 100 µM

IN: Record request: TGI value, item COc1ccc2c(c1)C(=O)/C(=C/c1ccc(O)cc1)O2
OUT: > 32.3 µM

IN: Record request: TGI value, item CCOc1cc2c(cc1O)C=C[C@@H]1[C@@H]2CC[C@]2(C)[C@@H](O)CC[C@@H]12
OUT: > 58.6 µM

IN: Record request: TGI value, item CC[C@H](C)[C@H](NC(=O)c1ncccn1)C(=O)N(C)[C@H](C[C@@H](OC(C)=O)c1nc(C(=O)N[C@@H](Cc2ccccc2)C[C@H](C)C(=O)OC)cs1)C(C)C
OUT: > 25 µM

IN: Record request: TGI value, item CCCC[n+]1ccn(-c2nc3ccccc3n2C)c1
OUT: > 100 µM

IN: Record request: TGI value, item CC(=O)OC1CC2C(C)(C)C(=O)C=C[C@]2(C)C2CCC3(C)C(c4ccoc4)C(=O)C4OC43[C@]12C (stereo not given in full)
OUT: 75.3 µM

IN: Record request: TGI value, item Nc1ccc(C(=O)CC2(O)C(=O)Nc3ccccc32)cc1 (stereo not given)
OUT: > 100 µM

IN: Record request: TGI value, item COc1cc(OCCCN2CCCC2)ccc1Nc1ncc(Cl)c(Nc2ccccc2P(C)(C)=O)n1
OUT: 11.8 µM

IN: Record request: TGI value, item C/C(CC(O)(C(F)(F)F)C(F)(F)F)=N\NC(N)=S
OUT: > 10 µM

IN: Record request: TGI value, item CCCC(=O)Oc1ccc(/C=N/NC(N)=S)nc1
OUT: > 100 µM

IN: Record request: TGI value, item OCC#Cc1ccccc1C#Cc1ccc(C#Cc2ccccc2C#CCO)cc1
OUT: > 100 µM

IN: Record request: TGI value, item COc1ccc2[nH]c3c(c2c1)CCc1c(OC)cccc1-3
OUT: > 100 µM

IN: Record request: TGI value, item C[C@H](CCC(=O)O)[C@H]1CC[C@H]2[C@@H]3[C@H](O)[C@H](O)[C@@H]4C[C@H](O)CC[C@]4(C)[C@H]3CC[C@]12C
OUT: > 100 µM

IN: Record request: TGI value, item CCCCCCCC(=O)Nc1nc2[nH]c(CN3CCN(Cc4cccc(I)c4)CC3)c(CN3CCN(Cc4cccc(I)c4)CC3)c2c(=O)[nH]1
OUT: 1.35 µM
